The origin of these recorded values is ChEMBL document CHEMBL4118196.

Test system: HT-29
EXPERIMENT_NOTES: Antiproliferative activity against human HT-29 cells in culture medium with 10% lipid-reduced serum after 4 days by ATP-Glo assay
Format: functional, cell-based
RUN_PARAMETERS: HT-29, 96 h
MEASURED_ENDPOINT: EC50 (µM)
One number for each entry, in µM.

Which EC50 value belongs to "Cn1cc(-c2ccc(-c3ccc(C4=NC5(CC5)C(=O)N4C[C@@H]4CCN(C(=O)C5CC5)C4)cc3)cc2)cn1" ? 7.94

====

System: A549
EXPERIMENT_NOTES: Antiproliferative activity against human A549 cells in culture medium with 10% lipid-reduced serum after 4 days in presence of palmitate by ATP-Glo assay
Type: functional, cell-based
RUN_PARAMETERS: A549, 96 h
MEASURED_ENDPOINT: EC50

Which EC50 value belongs to "Cn1cc(-c2ccc(-c3ccc(C4=NC5(CC5)C(=O)N4C[C@@H]4CCN(C(=O)C5CC5)C4)cc3)cc2)cn1" ? > 10 µM
